Values compiled from PubChem BioAssay.

List of normalised cell number values.
Assay: EMT-state selective cytotoxicity in co-culture – imaging, PC-3E GFP, TEM4-18 mCherry, primary screen (AID 1345086);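 further: cells exposed to compound for 72 h before imaging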
Conditions: PC-3E GFP / TEM4-18 mCherry co-culture, imaging cell counts; measured here: epithelial PC-3E GFP cell survival; at 1 µM
Give the figure by itself; no unit, no explanation.

Use the examples below as a reference point.
* CCN(CC)CCNC(=O)c1cc(S(C)(=O)=O)ccc1OC | 0.93
* CO/N=C1\CN(c2nc3c(cc2F)c(=O)c(C(=O)O)cn3C2CC2)CC1CN (centres undefined) | 1.32
* NC(=O)NO | 1.01

Next item in the queue.
Lookup: Check the records and state normalised cell number for CCN(CCCCOC(=O)c1ccc(OC)c(OC)c1)C(C)Cc1ccc(OC)cc1 (centres undefined)
Found: 0.88

###

Assay: viability loss in pontine glioma line – cell-based, SU-DIPG-XIII, MIPE5.0, CellTiter-Glo, qHTS, dose response (AID 1347064);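 on AC50: cells exposed to compound for 48 hours before the viability read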
Conditions: CellTiter-Glo ATP luminescence
Records with an inconclusive call do not appear. Calls of active or inactive are those of the source. The limit is not given here; nearly all actives have AC50 up to about 23 µM.
# valid calls are true (1) (active), false (0) (inactive); nothing else

• Cn1c(NCCN(CCO)CCCc2ccc([N+](=O)[O-])cc2)cc(=O)n(C)c1=O = false (0)
• CC(N)C12CC3CC(CC(C3)C1)C2 (stereo unspecified) = false (0)
• COc1cc2c(Nc3ccc(Br)cc3F)ncnc2cc1OCC1CCN(C)CC1 = true (1)
• CCCOc1ccc2nc(NC(=O)OC)[nH]c2c1 = true (1)

Please turn your attention to the following entry.
Lookup: Kindly provide the recorded test outcome for the following compound: Cc1ccc(C(=O)Nc2ccc(S(=O)(=O)O)c3cc(S(=O)(=O)O)cc(S(=O)(=O)O)c23)cc1NC(=O)c1cccc(NC(=O)Nc2cccc(C(=O)Nc3cc(C(=O)Nc4ccc(S(=O)(=O)O)c5cc(S(=O)(=O)O)cc(S(=O)(=O)O)c45)ccc3C)c2)c1
Found: false (0)

###

List of log fold change Tl+ flux values.
System: R275C/beta2Delta
Experiment: BK channel mutant inhibitors and activators – cell-based, U2OS BacMam, thallium flux, beta subunits, selectivity assay, profiling panel (AID 1259406);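 further: initial slope of Thallos dye fluorescence rise after thallium is added; log ratio against the mean of 0.3% DMSO vehicle wells on the same plate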
Conditions: U2OS BacMam BK variants, at 30 µM
Give the figure by itself; no unit, no explanation.

Use the examples below as a reference point.
• CN1CCC(=C2c3ccccc3CCc3sccc32)CC1 = 0.0371
• CC(=O)Nc1ccc(CC(=O)O)cc1 = -0.0277
• Cc1ncc([N+](=O)[O-])n1CC(O)CCl (configuration not stated) = -0.0154

Lookup: Check the records and state log fold change Tl+ flux for CN(C)CC[C@@H](c1ccc(Br)cc1)c1ccccn1
Found: 0.0403

Lookup: Check the records and state log fold change Tl+ flux for COC(=O)C1=C(C)NC(C)=C(C(=O)OC(C)C)C1c1cccc2nonc12 (configuration not stated)
Found: -0.0967

###

Target: Mitogen-activated protein kinase 7 (Homo sapiens)
Experiment: Gal4-ERK5 driven luciferase induction – cell-based, HTS, primary screen (AID 1508626);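 further: luciferase driven by Gal4-ERK5 fusion binding five Gal4 sites before minimal TATA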
Settings: HeLa Gal4-ERK5 transactivation, 18 h, at 5 µM
Calls of active or inactive are those of the source.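 Rule for the calls: active = luciferase signal above three times the same-plate solvent-only control wells; inactive = the rest.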
# valid calls are active, inactive; nothing else

These recorded examples may help you get a feel for the data.
- CN1C(C(=O)Nc2ccccn2)=C(O)c2sccc2S1(=O)=O: inactive
- COc1ccc(C2CNC(=O)C2)cc1OC1CCCC1 (stereo not drawn): inactive
- COc1cccc(OC)c1C(=O)N[C@@H]1C(=O)N2[C@@H]1SC(C)(C)[C@@H]2C(=O)O: inactive

Lookup: Kindly provide the recorded test outcome for the following compound: Clc1ccccc1C(c1ccccc1)(c1ccccc1)n1ccnc1
Found: inactive

Lookup: Kindly provide the recorded test outcome for the following compound: C[C@H]1c2cccc(O)c2C(O)=C2C(=O)[C@]3(O)C(O)=C(C(N)=O)C(=O)[C@@H](N(C)C)[C@@H]3[C@@H](O)[C@@H]21
Found: inactive

Lookup: Kindly provide the recorded test outcome for the following compound: Cc1nnc(SCC2=C(C(=O)O)N3C(=O)[C@@H](NC(=O)Cn4cnnn4)[C@H]3SC2)s1
Found: inactive

Lookup: Kindly provide the recorded test outcome for the following compound: Cc1ncc([N+](=O)[O-])n1CC(O)CCl (stereo not drawn)
Found: inactive

Lookup: Kindly provide the recorded test outcome for the following compound: CCC(=O)O[C@H]1[C@H](O[C@@H]2[C@@H](C)[C@H](O[C@H]3C[C@@](C)(OC)[C@@H](O)[C@H](C)O3)[C@@H](C)C(=O)O[C@H](CC)[C@@](C)(O)[C@H](O)[C@@H](C)C(=O)[C@H](C)C[C@@]2(C)O)O[C@H](C)C[C@@H]1N(C)C
Found: active
